Molecular target: T1, human TNFR2 on the surface of CHO-TNFR2 cells (human, UniProt P20333 23-461)
T1 construct: whole, on cells
T1 sequence (looked up): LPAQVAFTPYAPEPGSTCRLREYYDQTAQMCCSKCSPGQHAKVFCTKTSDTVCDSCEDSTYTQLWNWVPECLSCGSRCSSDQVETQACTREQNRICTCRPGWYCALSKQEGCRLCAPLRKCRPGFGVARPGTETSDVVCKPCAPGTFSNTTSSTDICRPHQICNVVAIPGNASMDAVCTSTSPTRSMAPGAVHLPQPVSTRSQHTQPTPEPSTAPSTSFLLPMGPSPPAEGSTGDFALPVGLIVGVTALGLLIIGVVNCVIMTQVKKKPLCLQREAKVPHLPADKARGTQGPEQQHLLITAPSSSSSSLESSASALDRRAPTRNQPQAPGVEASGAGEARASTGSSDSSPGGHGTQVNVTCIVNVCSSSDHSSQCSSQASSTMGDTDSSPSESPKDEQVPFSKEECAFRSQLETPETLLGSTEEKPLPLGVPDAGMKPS
Assay: competition flow cytometry on CHO-TNFR2 cells, competitor TNFα-biotin; IC50 against 224-WT
MEASURE_NAME: % Relative activity (WT antibody/test antibody) (%)
Answer format: numeric, % implied, no suffix.

The following binders have reported results that may help.
INSERT INTO measurements (binder, endpoint_value) VALUES
  ('224-Hu3 (antibody, V domains shown, Humanized form of #224; also called VH9 + VL8) VH: QVQLVQSGSELKKPGASVKVSCKASGFNNKDIYMHWVRQAPGQGLEWMGRIDPATGNTKHDPKFQDKAVLSSDTSVSTAYLQISSLKAEDTAVYYCARSPYGDFGAMDYWGQGTLVTVSS VL: DIQMTQSPSSLSASVGDRVTITCTASSSVSSNYLHWYQQKPGKAPKLLIYSTSNLPSGVPSRFSGSGSGTDFTLTISSLQAEDAATYYCHQYHRSPWTFGQGTKVEIK', 107),
  ('224-Hu7 (antibody, V domains shown, Humanized form of #224; also called VH9 + VL10) VH: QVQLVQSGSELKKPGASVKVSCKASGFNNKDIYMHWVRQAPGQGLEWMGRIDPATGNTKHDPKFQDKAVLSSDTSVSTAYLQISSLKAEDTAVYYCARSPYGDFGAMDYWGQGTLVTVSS VL: DIQMTQSPSSLSASVGDRVTITCTASSSVSSNYLHWYQQKPGKAPKLLIYSTSNLPSGVPSRFSGSGSGTDFTLTISSLQPEDFATYYCHQYHRSPWTFGQGTKVEIK', 73),
  ('224-Hu4 (antibody, V domains shown, Humanized form of #224; also called VH9 + VL6) VH: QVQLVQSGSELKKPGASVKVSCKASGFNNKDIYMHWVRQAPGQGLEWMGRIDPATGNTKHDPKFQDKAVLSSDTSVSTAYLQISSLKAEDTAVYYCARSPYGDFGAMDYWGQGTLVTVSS VL: DIQMTQSPSSLSASVGDRVTITCTASSSVSSNYLHWYQQKPGKAPKLWIYSTSNLPSGVPSRFSGSGSGTDFTLTISSLQPEDFATYYCHQYHRSPWTFGQGTKVEIK', 102);

Qu. May I ask what % Relative activity (WT antibody/test antibody) has been recorded for 224-Hu2 (antibody, V domains shown, Humanized form of #224; also called VH9 + VL7) VH: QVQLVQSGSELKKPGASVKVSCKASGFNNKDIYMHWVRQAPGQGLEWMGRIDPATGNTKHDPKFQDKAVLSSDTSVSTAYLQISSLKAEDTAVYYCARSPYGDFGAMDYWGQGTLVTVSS VL: DIQMTQSPSSLSASVGDRVTITCTASSSVSSNYLHWYQQKPGSSPKLWIYSTSNLPSGVPSRFSGSGSGTDFTLTISSLQPEDFATYYCHQYHRSPWTFGQGTKVEIK ?
Ans. 124
